Molecular target: Adrenergic receptor alpha-2 (Rattus norvegicus, UniProt P22086+P19328+P22909)
Sequence (P22086 whole entry): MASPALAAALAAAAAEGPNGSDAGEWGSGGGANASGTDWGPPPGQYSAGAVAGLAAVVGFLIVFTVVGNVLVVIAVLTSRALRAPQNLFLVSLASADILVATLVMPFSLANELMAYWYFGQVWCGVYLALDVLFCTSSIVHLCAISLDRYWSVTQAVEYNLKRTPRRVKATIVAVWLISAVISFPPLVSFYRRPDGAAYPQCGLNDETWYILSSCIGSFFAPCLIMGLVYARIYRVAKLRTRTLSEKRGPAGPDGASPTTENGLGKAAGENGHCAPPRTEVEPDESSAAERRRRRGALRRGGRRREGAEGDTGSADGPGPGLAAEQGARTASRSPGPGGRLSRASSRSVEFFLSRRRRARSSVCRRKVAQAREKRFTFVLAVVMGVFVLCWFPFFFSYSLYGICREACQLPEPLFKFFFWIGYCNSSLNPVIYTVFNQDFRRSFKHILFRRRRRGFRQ
Sequence (P19328 whole entry): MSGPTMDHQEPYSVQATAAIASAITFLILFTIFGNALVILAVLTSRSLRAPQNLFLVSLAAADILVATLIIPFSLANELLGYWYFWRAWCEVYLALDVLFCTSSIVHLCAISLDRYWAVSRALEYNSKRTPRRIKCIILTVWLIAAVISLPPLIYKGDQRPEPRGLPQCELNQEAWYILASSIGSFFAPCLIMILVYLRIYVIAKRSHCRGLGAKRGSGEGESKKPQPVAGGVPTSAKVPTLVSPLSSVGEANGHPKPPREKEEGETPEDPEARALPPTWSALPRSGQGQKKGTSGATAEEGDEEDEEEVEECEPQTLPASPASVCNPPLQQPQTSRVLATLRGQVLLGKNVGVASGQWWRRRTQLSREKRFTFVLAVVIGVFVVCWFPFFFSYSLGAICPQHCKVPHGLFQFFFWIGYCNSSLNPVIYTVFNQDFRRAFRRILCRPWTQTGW
Sequence (P22909 whole entry): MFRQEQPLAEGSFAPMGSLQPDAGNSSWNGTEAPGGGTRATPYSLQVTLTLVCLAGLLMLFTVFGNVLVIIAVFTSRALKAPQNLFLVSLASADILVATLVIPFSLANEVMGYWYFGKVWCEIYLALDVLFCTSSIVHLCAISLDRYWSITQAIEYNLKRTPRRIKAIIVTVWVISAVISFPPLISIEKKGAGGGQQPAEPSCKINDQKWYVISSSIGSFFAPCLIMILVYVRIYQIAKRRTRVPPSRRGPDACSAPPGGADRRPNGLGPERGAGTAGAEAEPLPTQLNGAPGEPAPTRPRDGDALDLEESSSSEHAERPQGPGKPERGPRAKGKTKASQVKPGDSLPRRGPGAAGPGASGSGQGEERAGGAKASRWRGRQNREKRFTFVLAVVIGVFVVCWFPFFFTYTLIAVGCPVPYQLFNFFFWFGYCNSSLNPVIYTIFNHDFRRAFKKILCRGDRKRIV
Experiment: Displacement of [3H]clonidine from Sprague-Dawley rat cortex adrenergic alpha 2 receptor
quantity_measured: Ki (µM)

[P] O=S(=O)(CC(F)(F)F)c1ccc2c(c1)CNC(CF)C2 (stereo not drawn)
[Q] COCCCS(=O)(=O)c1ccc2c(c1)CNC(CF)C2 (stereo not drawn)
Request: // pick min by Ki: P , Q Answer with the label corresponding to your selection.
Response: P
(P: 740 µM, Q: 1200 µM)
